Where do the numbers come from? From patent US12122779B2.

Parameter half-life: see the listing below.
# assay-protocol: Rodent pharmacokinetic study
# Format: in vivo, Male Wistar rats
# assay-context: male, Wistar, plasma; rat, intravenous (bolus), 1 mg/kg

compound	half-life (h)
Cn1cc(-c2ccc(Cc3cc(C(=O)NCC4(O)CCCCC4)nn4cccc34)cc2)cn1	1.6
O=C(NC1CCOCC1)c1cc(Cc2ccc(Cl)cc2)c2cccn2n1	5.7
Cn1cc(-c2ccc(Cc3cc(C(=O)NC4CCOCC4)nn4cccc34)cc2)cn1	8.1
O=C(N[C@H]1CCCC[C@@H]1O)c1cc(Cc2ccc(-c3cccnc3)cc2)c2cccn2n1 (stereo in doubt)	1.8

* * *

# assay-protocol: Rodent pharmacokinetic study
# Format: in vivo, Male Wistar rats
# assay-context: male, Wistar, plasma; rat, oral (gavage), 3 mg/kg
attribute-measured: half-life (h)

compound	readout-value
O=C(N[C@H]1CCCC[C@@H]1O)c1cc(Cc2ccccc2)c2cccn2n1	2.5
Cn1cc(-c2ccc(Cc3cc(C(=O)NC4CCOCC4)nn4cccc34)cc2)cn1	8.7
Cc1cncc(-c2ccc(Cc3cc(C(=O)N[C@H]4CCCC[C@@H]4O)nn4cccc34)cc2)c1 (stereo in doubt)	1.79
O=C(NC1CCOCC1)c1cc(Cc2ccc(-c3ccncc3)cc2)c2cccn2n1	2.8

* * *

# assay-protocol: Rodent pharmacokinetic study
# Format: in vivo, Male Wistar rats
# assay-context: male, Wistar, plasma; rat, intravenous (bolus), 1 mg/kg
Label rule, in plain words: AUC(0-t) of 700 ng·h/mL and up is Condition met, under 700 ng·h/mL is Condition not met.

compound	class
O=C(NC1CCOCC1)c1cc(Cc2ccc(Cl)cc2)c2cccn2n1	Condition not met
CC(C)(O)CNC(=O)c1cc(Cc2ccc(-c3cccnc3)cc2)c2cccn2n1	Condition met
O=C(N[C@H]1CCCC[C@@H]1O)c1cc(Cc2ccccc2)c2cccn2n1	Condition not met
Cc1cncc(-c2ccc(Cc3cc(C(=O)N[C@H]4CCCC[C@@H]4O)nn4cccc34)cc2)c1 (stereo in doubt)	Condition met
Cn1cc(-c2ccc(Cc3cc(C(=O)N[C@H]4CCOC[C@@H]4O)nn4cccc34)cc2)cn1 (stereo in doubt)	Condition met
Cn1cc(-c2ccc(Cc3cc(C(=O)NCC(C)(C)O)nn4cccc34)cc2)cn1	Condition met
O=C(NC1CCOCC1)c1cc(Cc2ccc(-c3ccncc3)cc2)c2cccn2n1	Condition not met

* * *

# assay-protocol: Rodent pharmacokinetic study
# Type: in vivo, Male Wistar rats
# assay-context: male, Wistar, plasma; rat, oral (gavage), 3 mg/kg
attribute-measured: AUC(0-t) (ng·h/mL)

molecule	attribute-measured	units-text	readout-value
Cn1cc(-c2ccc(Cc3cc(C(=O)N[C@H]4CCOC[C@@H]4O)nn4cccc34)cc2)cn1 (stereo in doubt)	AUC(0-t)	ng·h/mL	13000
Cn1cc(-c2ccc(Cc3cc(C(=O)NCC(C)(C)O)nn4cccc34)cc2)cn1	AUC(0-t)	ng·h/mL	1940
O=C(N[C@H]1CCCC[C@@H]1O)c1cc(Cc2ccccc2)c2cccn2n1	AUC(0-t)	ng·h/mL	259
O=C(NC1CCOCC1)c1cc(Cc2ccc(Cl)cc2)c2cccn2n1	AUC(0-t)	ng·h/mL	532

* * *

# experimental-target: recombinant human Muscarinic M1 receptor (Homo sapiens, UniProt P11229)
# assay-protocol: Allosteric potency EC50 for muscarinic M1 receptor, CHO pCRE-Luc reporter cell-based assay with EC20 of acetylcholine
# assay-context: CHO cells, luciferase activity, in presence of EC20 of acetylcholine, 4 hours
The following compounds are listed with their measured EC50 values.

compound	units-text	EC50
O=C(N[C@H]1CCCC[C@@H]1O)c1cc(Cc2ccc(Cc3ccnc(F)c3)cc2)c2cccn2n1	nM	518
CC(C)(O)CNC(=O)c1cc(Cc2ccc(Cl)cc2)c2cccn2n1	nM	941
CC(C)C(CO)NC(=O)c1cc(Cc2ccc(-c3cnn(C)c3)cc2)c2cccn2n1 (stereo not shown)	nM	411
O=C(NC1CCOCC1)c1cc(Cc2ccc(-c3cccnc3)cc2)c2cccn2n1	nM	586

* * *

# experimental-target: recombinant human Muscarinic M1 receptor (Homo sapiens, UniProt P11229)
# Sequence (P11229 1-460): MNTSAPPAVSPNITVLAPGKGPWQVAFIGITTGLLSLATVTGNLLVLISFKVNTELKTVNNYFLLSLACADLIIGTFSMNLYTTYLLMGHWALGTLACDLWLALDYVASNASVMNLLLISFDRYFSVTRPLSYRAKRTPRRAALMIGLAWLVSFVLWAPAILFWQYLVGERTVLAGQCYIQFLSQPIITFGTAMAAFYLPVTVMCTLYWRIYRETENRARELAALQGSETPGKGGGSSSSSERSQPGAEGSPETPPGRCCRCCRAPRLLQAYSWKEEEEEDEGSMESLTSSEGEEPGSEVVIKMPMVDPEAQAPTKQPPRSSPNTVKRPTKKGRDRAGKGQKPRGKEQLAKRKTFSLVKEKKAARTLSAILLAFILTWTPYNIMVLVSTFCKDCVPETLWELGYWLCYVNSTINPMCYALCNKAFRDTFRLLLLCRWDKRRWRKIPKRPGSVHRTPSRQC
# assay-protocol: Allosteric potency EC50 for muscarinic M1 receptor, CHO pCRE-Luc reporter cell-based assay with EC20 of acetylcholine
# assay-context: CHO cells, luciferase activity, in presence of EC20 of acetylcholine, 4 hours
pEC50: −log10 of the molar value.
Decision: pEC50 >= 6 yields t, all other cases yield f.

compound	class
O=C(NCC1(O)CCOCC1)c1cc(Cc2ccc(Cl)cc2)c2cccn2n1 [Example 6]	f
Cc1cncc(-c2ccc(Cc3cc(C(=O)N[C@H]4CCCC[C@@H]4O)nn4cccc34)cc2)c1 (stereo in doubt) [Example 44]	t
Cn1cc(-c2ccc(Cc3cc(C(=O)NCC4(O)CCOCC4)nn4cccc34)cc2)cn1 [Example 22]	f
Cn1cc(-c2ccc(Cc3cc(C(=O)NCC4CCOC4)nn4cccc34)cc2)cn1 (stereo not shown) [Example 35]	t
O=C(NCCO)c1cc(Cc2ccc(Br)cc2)c2cccn2n1 [Example 12]	f
Cn1cc(-c2ccc(Cc3cc(C(=O)NCC4(O)CCCCC4)nn4cccc34)cc2)cn1 [Example 24]	t
O=C(NC1CCOC1)c1cc(Cc2ccc(-c3cccnc3)cc2)c2cccn2n1 (stereo not shown) [Example 34]	f
Cn1cc(-c2ccc(Cc3cc(C(=O)NC4CCOC4)nn4cccc34)cc2)cn1 (stereo not shown) [Example 32]	f

* * *

# assay-protocol: Rodent pharmacokinetic study
# Type: in vivo, Male Wistar rats
# assay-context: male, Wistar, plasma; rat, oral (gavage), 3 mg/kg

molecule	Cmax / ng/mL
Cn1cc(-c2ccc(Cc3cc(C(=O)NCC(C)(C)O)nn4cccc34)cc2)cn1 [Example 19]	933
O=C(N[C@H]1CCCC[C@@H]1O)c1cc(Cc2ccccc2)c2cccn2n1 [Example 4]	113
Cn1cc(-c2ccc(Cc3cc(C(=O)NC4CCOCC4)nn4cccc34)cc2)cn1 [Example 21]	1060
O=C(N[C@H]1CCCC[C@@H]1O)c1cc(Cc2ccc(-c3ccncc3)cc2)c2cccn2n1 (stereo in doubt) [Example 27]	397
Cn1cc(-c2ccc(Cc3cc(C(=O)N[C@H]4CCOC[C@@H]4O)nn4cccc34)cc2)cn1 (stereo in doubt) [Example 38]	1860
O=C(N[C@H]1CCCC[C@@H]1O)c1cc(Cc2ccc(-c3cccnc3)cc2)c2cccn2n1 (stereo in doubt) [Example 26]	762
Cn1cc(-c2ccc(Cc3cc(C(=O)NCC4(O)CCCCC4)nn4cccc34)cc2)cn1 [Example 24]	16
Cc1cncc(-c2ccc(Cc3cc(C(=O)N[C@H]4CCCC[C@@H]4O)nn4cccc34)cc2)c1 (stereo in doubt) [Example 44]	1440
CC(C)(O)CNC(=O)c1cc(Cc2ccc(-c3cccnc3)cc2)c2cccn2n1 [Example 29]	1810
O=C(NC1CCOCC1)c1cc(Cc2ccc(Cl)cc2)c2cccn2n1 [Example 14]	68
O=C(NC1CCOCC1)c1cc(Cc2ccc(-c3ccncc3)cc2)c2cccn2n1 [Example 31]	363

* * *

Entries annotated with measured AUC(0-t)
# assay-protocol: Rodent pharmacokinetic study
# Format: in vivo, Male Wistar rats
# assay-context: male, Wistar, plasma; rat, oral (gavage), 3 mg/kg
attribute-measured: AUC(0-t) (ng·h/mL)

compound	attribute-measured	units-text	readout-value
CC(C)(O)CNC(=O)c1cc(Cc2ccc(-c3cccnc3)cc2)c2cccn2n1	AUC(0-t)	ng·h/mL	6030
O=C(N[C@H]1CCCC[C@@H]1O)c1cc(Cc2ccc(-c3cccnc3)cc2)c2cccn2n1 (stereo in doubt)	AUC(0-t)	ng·h/mL	2390
Cc1cncc(-c2ccc(Cc3cc(C(=O)N[C@H]4CCCC[C@@H]4O)nn4cccc34)cc2)c1 (stereo in doubt)	AUC(0-t)	ng·h/mL	4430
Cn1cc(-c2ccc(Cc3cc(C(=O)NCC4(O)CCCCC4)nn4cccc34)cc2)cn1	AUC(0-t)	ng·h/mL	52

* * *

Entries annotated with measured AUC(0-t)
# assay-protocol: Rodent pharmacokinetic study
# Format: in vivo, Male Wistar rats
# assay-context: male, Wistar, plasma; rat, oral (gavage), 3 mg/kg

compound	AUC(0-t) / ng·h/mL
O=C(NC1CCOCC1)c1cc(Cc2ccc(-c3ccncc3)cc2)c2cccn2n1	1960
O=C(N[C@H]1CCCC[C@@H]1O)c1cc(Cc2ccc(-c3ccncc3)cc2)c2cccn2n1 (stereo in doubt)	1000
Cn1cc(-c2ccc(Cc3cc(C(=O)NC4CCOCC4)nn4cccc34)cc2)cn1	14200
